- experimentalProtocol: physchem
- cond: pH 3.88, aqueous buffer
measurementLabel: solubility (µg/mL)
# number only, unit µg/mL dropped from output

Prompt: Give solubility for the following compound: OCCN(CCO)c1nc(N2CCCCC2)c2nc(N(CCO)CCO)nc(N3CCCCC3)c2n1
Completion: 650

###

- experimentalProtocol: Solubilities of weakly basic drugs in organic acid buffers
- cond: pH 2.75, aqueous buffer, Solubility of Ondansetron Hydrochloride, fumaric acid 0.25 mg/mL; start pH 2.79, end pH 2.75
measurementLabel: solubility
Please answer using the number first and the unit second.

Prompt: Give solubility for the following molecule: Cc1nccn1CC1CCc2c(c3ccccc3n2C)C1=O.Cl.O.O (racemic) [Ondansetron Hydrochloride]
Completion: 26.2 mg/mL
